System: 422866-222-R5-J1-PDC complex spheroid viability
experiment: Anticancer human tumor 422866-222-R5-J1-PDC patient-derived pancreatic adenocarcinoma cell line growth inhibition [POLQ]
experimental conditions: second compound 3.16 µM; first compound 3.16 µM; stronger effect = lower value
I'd appreciate it if you marked entries yes (1) when viability, T/C is lower than 80% and no (0) when it is not.

Look over these answered cases.
query: Please state whether viability, T/C is below 80% for CNCc1ccc(-c2[nH]c3cc(F)cc4c3c2CCNC4=O)cc1 + COC1C(OC(N)=O)C(O)C(Oc2ccc3c(O)c(NC(=O)c4ccc(O)c(CC=C(C)C)c4)c(=O)oc3c2C)OC1(C)C
result: no (0)

query: Please state whether viability, T/C is below 80% for CC1COCCN1c1cc(C2(S(C)(=N)=O)CC2)nc(-c2ccnc3[nH]ccc23)n1 (stereo not given) + COC1C(OC(N)=O)C(O)C(Oc2ccc3c(O)c(NC(=O)c4ccc(O)c(CC=C(C)C)c4)c(=O)oc3c2C)OC1(C)C
result: yes (1)

Shift focus to the following entry.
query: Please state whether viability, T/C is below 80% for CCCS(=O)(=O)Nc1ccc(F)c(C(=O)c2c[nH]c3ncc(-c4ccc(Cl)cc4)cc23)c1F + Cc1cccc(N(C)C(=O)C2C(O)CCN2c2nc(C)cc(C(F)(F)F)c2C#N)c1
result: no (0)

* * *

System: 422866-222-R5-J1-PDC complex spheroid viability
experiment: Anticancer human tumor 422866-222-R5-J1-PDC cell line growth inhibition [POLQ];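 note: spheroids exposed to compounds for one week before readout; percent of DMSO vehicle wells luminescence so 100% = untreated viability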
experimental conditions: second compound 0.1 µM; first compound 0.01 µM; stronger effect = lower value
Could you please report measured viability, T/C for the items listed next?
Numbers only, in %.

These solved cases illustrate the format of a correct answer.
query: Enter viability, T/C (test system 422866-222-R5-J1-PDC complex spheroid viability) for CCc1c2c(nc3ccc(O)cc13)-c1cc3c(c(=O)n1C2)COC(=O)[C@]3(O)CC + COC1C(OC(N)=O)C(O)C(Oc2ccc3c(O)c(NC(=O)c4ccc(O)c(CC=C(C)C)c4)c(=O)oc3c2C)OC1(C)C
result: 34.8

query: Enter viability, T/C (test system 422866-222-R5-J1-PDC complex spheroid viability) for CC[C@@]1(O)C(=O)OCc2c1cc1n(c2=O)Cc2cc3c(CN(C)C)c(O)ccc3nc2-1 + Nc1ccc(C#CCN(C(=O)Cc2ncc(C(F)(F)F)cc2C(F)(F)F)c2ccc(F)cc2)nn1
result: 63.9

query: Enter viability, T/C (test system 422866-222-R5-J1-PDC complex spheroid viability) for COc1cccc(OCCCN)c1-c1cc(Nc2cnc(C#N)cn2)n[nH]1 + COC1C(OC(N)=O)C(O)C(Oc2ccc3c(O)c(NC(=O)c4ccc(O)c(CC=C(C)C)c4)c(=O)oc3c2C)OC1(C)C
result: 42.1

New cases:
query: Enter viability, T/C (test system 422866-222-R5-J1-PDC complex spheroid viability) for CC[C@@]1(O)C(=O)OCc2c1cc1n(c2=O)Cc2cc3c(CN(C)C)c(O)ccc3nc2-1 + COC1C(OC(N)=O)C(O)C(Oc2ccc3c(O)c(NC(=O)c4ccc(O)c(CC=C(C)C)c4)c(=O)oc3c2C)OC1(C)C
result: 77.8

* * *

Tested on: 422866-222-R5-J1-PDC complex spheroid viability
experiment: Anticancer human tumor 422866-222-R5-J1-PDC cell line growth inhibition [POLQ];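 note: spheroids exposed to compounds for one week before readout; percent of DMSO vehicle wells luminescence so 100% = untreated viability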
experimental conditions: second compound 0.1 µM; first compound 0.1 µM; stronger effect = lower value
assay metric: viability, T/C (%)
Answers are plain numbers, in %.

These solved cases illustrate the format of a correct answer.
query: Specify measured viability, T/C for C#Cc1c(F)ccc2cc(O)cc(-c3ncc4c(N5CC6CCC(C5)N6)nc(OCC56CCCN5CC(F)C6)nc4c3F)c12 (stereo not given) + Nc1ccc(C#CCN(C(=O)Cc2ncc(C(F)(F)F)cc2C(F)(F)F)c2ccc(F)cc2)nn1 .
result: 71.5

query: Specify measured viability, T/C for COc1cccc2c1C(=O)c1c(O)c3c(c(O)c1C2=O)CC(O)(C(=O)CO)CC3OC1CC(N)C(O)C(C)O1 (stereo not given) + Cc1cccc(N(C)C(=O)C2C(O)CCN2c2nc(C)cc(C(F)(F)F)c2C#N)c1 .
result: 51.3

Go through the list and state viability, T/C for each entry.
1. CCCS(=O)(=O)Nc1ccc(F)c(C(=O)c2c[nH]c3ncc(-c4ccc(Cl)cc4)cc23)c1F + COC1C(OC(N)=O)C(O)C(Oc2ccc3c(O)c(NC(=O)c4ccc(O)c(CC=C(C)C)c4)c(=O)oc3c2C)OC1(C)C
2. CC1COCCN1c1cc(C2(S(C)(=N)=O)CC2)nc(-c2ccnc3[nH]ccc23)n1 (stereo not given) + Cc1cccc(N(C)C(=O)C2C(O)CCN2c2nc(C)cc(C(F)(F)F)c2C#N)c1
3. COc1cc(C2c3cc4c(cc3C(OC3OC5COC(C)OC5C(O)C3O)C3COC(=O)C23)OCO4)cc(OC)c1O (stereo not given) + Nc1ccc(C#CCN(C(=O)Cc2ncc(C(F)(F)F)cc2C(F)(F)F)c2ccc(F)cc2)nn1

result:
118
121
90.1
